All values here come from patent US20180044434A1.

Target: T1, full-length recombinant human PAD4 (human, UniProt Q9UM07 1-663)
T1 construct: Full-length recombinant; also called peptidylarginine deiminase 4
T1 sequence (Q9UM07 whole entry): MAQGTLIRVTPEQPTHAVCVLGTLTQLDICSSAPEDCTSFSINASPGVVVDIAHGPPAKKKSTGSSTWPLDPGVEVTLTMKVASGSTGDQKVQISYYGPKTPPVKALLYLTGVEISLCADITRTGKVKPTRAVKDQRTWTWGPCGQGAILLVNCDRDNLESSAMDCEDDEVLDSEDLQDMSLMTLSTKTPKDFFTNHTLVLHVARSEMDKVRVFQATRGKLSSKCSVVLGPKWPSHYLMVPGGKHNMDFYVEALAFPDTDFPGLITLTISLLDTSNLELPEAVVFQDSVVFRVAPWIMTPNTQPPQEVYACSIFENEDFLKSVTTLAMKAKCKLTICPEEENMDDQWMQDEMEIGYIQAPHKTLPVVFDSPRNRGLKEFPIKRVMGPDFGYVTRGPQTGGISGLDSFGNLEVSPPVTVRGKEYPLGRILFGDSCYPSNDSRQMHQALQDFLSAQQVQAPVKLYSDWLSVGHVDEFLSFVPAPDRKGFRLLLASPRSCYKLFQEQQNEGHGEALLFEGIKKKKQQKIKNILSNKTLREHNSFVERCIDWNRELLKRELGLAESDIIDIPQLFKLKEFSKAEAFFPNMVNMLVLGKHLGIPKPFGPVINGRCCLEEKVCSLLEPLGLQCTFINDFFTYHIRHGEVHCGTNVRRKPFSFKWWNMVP
Experiment: ELISA, immobilized human PAD4
Parameter: O.D. 490/630 at 0.0625 µg/mL. Scope: all listed entries.
Give only the figure.

Here is how some binders turned out for O.D. 490/630 at 0.0625 µg/mL.
humanized anti-PAD4 antibody derived from G8, VH H4.15 / VL L4.29 (antibody, human IgG1, kappa, V domains shown, IgG1 kappa; also called G8 H4.15/L4.29) VH: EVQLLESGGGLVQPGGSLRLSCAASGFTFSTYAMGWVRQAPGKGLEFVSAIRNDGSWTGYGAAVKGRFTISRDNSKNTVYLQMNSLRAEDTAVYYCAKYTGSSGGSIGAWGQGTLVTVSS VL: SYELTQPPSVSVSPGQTARITCSGGNRNYYYGWYQQKPGQAPVTVIYANDKRPSGIPERFSGSNSGSTTTLTISGVQAEDEADYYCGTADTGKYVFGGGTKLTVLG : 1.91
humanized anti-PAD4 antibody derived from G8, VH H4.32 / VL L4.06 (antibody, IgG1, V domains shown, IgG1 kappa; also called G8 H4.32/L4.06) VH: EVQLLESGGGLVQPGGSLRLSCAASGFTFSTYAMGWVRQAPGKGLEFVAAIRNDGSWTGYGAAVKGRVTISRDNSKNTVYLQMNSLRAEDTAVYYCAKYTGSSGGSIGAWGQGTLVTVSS VL: SYELTQPPSVSVSPGQTARITCSGGNRNYYYGWYQQKPGQAPVTVIYANDKRPSGIPERFSGSYSGNTTTLTISGVQAEDEADYYCGTADTGKYVFGGGTKLTVLG : 1.91

The measured O.D. 490/630 at 0.0625 µg/mL associated with humanized anti-PAD4 antibody derived from H7, VH H4.32 / VL L4.00 (antibody, IgG1, V domains shown, IgG1 kappa; also called H7 H4.32/L4.00) VH: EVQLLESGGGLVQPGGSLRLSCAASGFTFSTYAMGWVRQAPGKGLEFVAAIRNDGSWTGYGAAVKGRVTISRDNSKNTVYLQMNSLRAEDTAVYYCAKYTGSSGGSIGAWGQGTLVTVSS VL: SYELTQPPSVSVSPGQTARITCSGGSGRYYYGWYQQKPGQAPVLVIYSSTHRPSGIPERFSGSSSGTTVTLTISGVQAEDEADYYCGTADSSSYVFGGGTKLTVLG reads 1.65
